Tested on: Dihydroorotate dehydrogenase (quinone), mitochondrial (Homo sapiens)
Sequence (Q02127 whole entry): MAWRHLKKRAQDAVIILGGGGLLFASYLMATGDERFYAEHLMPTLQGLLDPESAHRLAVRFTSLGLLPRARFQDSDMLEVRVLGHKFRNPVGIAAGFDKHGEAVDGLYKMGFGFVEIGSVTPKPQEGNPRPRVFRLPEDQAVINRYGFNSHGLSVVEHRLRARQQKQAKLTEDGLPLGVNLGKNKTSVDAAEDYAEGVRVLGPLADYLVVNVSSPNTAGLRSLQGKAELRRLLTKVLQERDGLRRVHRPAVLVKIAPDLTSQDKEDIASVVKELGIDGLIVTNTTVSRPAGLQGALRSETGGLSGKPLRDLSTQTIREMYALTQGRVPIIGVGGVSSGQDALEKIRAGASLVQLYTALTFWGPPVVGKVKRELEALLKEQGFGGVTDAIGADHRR
Assay method text: Inhibition of DHODH in human HeLa cells assessed as reduction in hypoxia-induced VEGF expression incubated for 48 hrs by ELISA assay
pEC50: −log10 of the molar value.
Attribute measured: pEC50

(I) Brc1ccc2[nH]c3c(c2c1)CCCC3n1cccc1 (centres undefined)
(II) COc1ccc([C@H]2c3[nH]c4ccccc4c3C[C@@H]3C(=O)N(C4CCCCC4)C(=S)N23)cc1
(III) COc1ccc([C@H]2c3[nH]c4ccc(Br)cc4c3C[C@@H]3C(=O)N(C4CCCCC4)C(=S)N23)cc1
(IV) COc1ccc([C@H]2c3[nH]c4ccc(Cl)cc4c3C[C@@H]3C(=O)N(C4CCCCC4)C(=S)N23)cc1
**Query** Sort ascending by pEC50: all records listed above. Show the ranking through the labels, in the order asked for.
**Result** II, I, III, IV

====

Assay method text: AUC([…]) in mouse at 10 mg/kg, po administered via gavage measured upto 24 hrs by LC/MS-MS analysis
Format: ADME, organism-based
Parameters: dose 10 mg/kg, time < 24 hrs, route po
Setup conditions: in vivo
Attribute measured: AUC(0-t) at 24 h (ng·h/mL)

**Query** Please look at this compound and report its AUC(0-t) at 24 h: CCOC(=O)N1CCc2c([nH]c3ccc(Cl)cc23)C1c1ccc(Cl)cc1 (stereo not given)
**Result** 550

(A) COc1ccc(C2c3[nH]c4ccc(Cl)cc4c3CCN2C(=O)Oc2ccc(Cl)cc2)cc1 (stereo not given)
(B) CCOC(=O)N1CCc2c([nH]c3ccc(Cl)cc23)C1c1ccc(OC)cc1 (stereo not given)
(C) CCOC(=O)N1CCc2c([nH]c3ccc(Cl)cc23)C1c1ccc(F)cc1 (stereo not given)
(D) COc1ccc(C2c3[nH]c4ccc(Cl)cc4c3CCN2C(=O)Oc2ccc(C)cc2)cc1 (stereo not given)
**Query** Rank the items in ascending order with respect to AUC(0-t) at 24 h. Answer format: list of labels, ordered as asked.
**Result** C, B, D, A

====

Assay method text: Metabolic stability in mouse liver microsomes assessed as intrinsic clearance at 1 uM incubated upto 60 mins in presence of NADP by LC-MS analysis
Type: ADME, Microsome
Setup conditions: read-out: CLH
Attribute measured: CLint scaled at 1 µM (mL/min/kg)

(P) CCOC(=O)N1CCc2c([nH]c3ccc(Cl)cc23)C1c1cccc(Cl)c1 (stereo unspecified)
(Q) COc1ccc(C2c3[nH]c4ccc(Cl)cc4c3CCN2C(=O)OCCF)cc1 (stereo unspecified)
(R) COc1ccc(C2c3[nH]c4ccc(Cl)cc4c3CCN2C(=O)Oc2ccccc2)cc1 (stereo unspecified)
(S) COCCOC(=O)N1CCc2c([nH]c3ccc(Cl)cc23)C1c1ccc(OC)cc1 (stereo unspecified)
**Query** Please give the order of these compounds when sorted by CLint scaled at 1 µM, largest value leading. Output spec: a listing of the labels in the requested order.
**Result** S, Q, P, R

====

Assay method text: Oral bioavailability in Beagle dog at 3 mg/kg by LC-MS/MS analysis
Format: ADME, organism-based, Canis lupus familiaris
Setup conditions: in vivo
Attribute measured: bioavailability (%)
Report as a plain number; the unit % is understood.

**Query** In one line, give reported bioavailability of the entry COc1ccc([C@H]2c3[nH]c4ccc(Cl)cc4c3CCN2C(=O)Oc2ccc(Cl)cc2)cc1 [EMVODODSTAT] .
**Result** 8

Hey, just so you know, these numbers are from ChEMBL document CHEMBL5247596.
